# method-description: chemical genetic growth profiling, strain panel (AID 1159580);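 further: tested at 20 µM; growth read once vehicle control cultures reached saturation at 30 °C; 1 = growth at the plate median or of vehicle wells; lower values mean less growth of the strain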
# condition-parameters: S. cerevisiae deletion strains, growth OD, locus YEL003W, strain gim4
Out of some 5,500 compounds screened, about 2,000 (36%) were called active. Inconclusive results (about 18%) are left out. No stated cut-off is given here; in the data, active means normalized growth mostly below about 0.91 (no sharp cut-off); inconclusive means no clear call, values can overlap the other calls; inactive means mostly above about 0.92. Some of the results follow.
Labels: label 1 = active, label 0 = inactive

[
  {
    "molecule": "C1CCc2nnnn2CC1",
    "label-class": "label 0"
  },
  {
    "molecule": "c1ccc(CN(CC2=NCCN2)c2ccccc2)cc1",
    "label-class": "label 0"
  },
  {
    "molecule": "O=C(Cc1ccccc1)NO",
    "label-class": "label 0"
  },
  {
    "molecule": "CCCCCCCC/C=C/CCCCCCCCOP(=O)([O-])OCC[N+](C)(C)C",
    "label-class": "label 1"
  },
  {
    "molecule": "O=[N+]([O-])O[C@H]1CO[C@H]2[C@@H]1OC[C@H]2O[N+](=O)[O-]",
    "label-class": "label 0"
  },
  {
    "molecule": "O=C(O)C1CC([C@@H]2CCCCN2)CN2CCCCC12 (some centres undefined)",
    "label-class": "label 0"
  },
  {
    "molecule": "NCC1CCCCC1CC(=O)O (centres undefined)",
    "label-class": "label 0"
  },
  {
    "molecule": "COc1cccc([C@]2(O)CCCC[C@H]2CN(C)C)c1",
    "label-class": "label 0"
  },
  {
    "molecule": "CCSC(=N)N",
    "label-class": "label 0"
  },
  {
    "molecule": "CNC1(C)C2CCC(C2)C1(C)C (centres undefined)",
    "label-class": "label 0"
  },
  {
    "molecule": "CCCCOc1ccc(CC(=O)NO)cc1",
    "label-class": "label 0"
  },
  {
    "molecule": "CCCCCCCCCCCCCCCCOP(=O)([O-])OCC[N+](C)(C)C",
    "label-class": "label 1"
  },
  {
    "molecule": "Cc1cc(OC(=O)N2CCCCC2)c(C(C)C)cc1[N+](C)(C)C",
    "label-class": "label 0"
  },
  {
    "molecule": "O=C(O)c1ccccc1OP(=O)(O)O",
    "label-class": "label 0"
  }
]

====

# method-description: chemical genetic growth profiling, strain panel (AID 1159580);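 further: tested at 20 µM; growth read once vehicle control cultures reached saturation at 30 °C; 1 = growth at the plate median or of vehicle wells; lower values mean less growth of the strain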
# condition-parameters: S. cerevisiae deletion strains, growth OD, locus YJR043C, strain POL32, hits give low values
Screen size: about 5,500 compounds; about 2,000 (36%) were called active. Inconclusive results (about 18%) are left out. This is one part of the list.

[
  {
    "molecule": "FC(F)(F)Oc1ccc(-c2noc(CSc3ccc(Br)cc3)n2)cc1",
    "normalized growth": 0.992
  },
  {
    "molecule": "COc1ccccc1CC(=O)NC1CCN(Cc2ccccc2)CC1",
    "normalized growth": 1.01
  },
  {
    "molecule": "C[N+](C)(C)CC(=O)[O-]",
    "normalized growth": 0.998
  },
  {
    "molecule": "CN=C(NC#N)NCCSCc1nc[nH]c1C",
    "normalized growth": 0.98
  },
  {
    "molecule": "OCCN(CCO)c1nc(N2CCCCC2)c2nc(N(CCO)CCO)nc(N3CCCCC3)c2n1",
    "normalized growth": 1.01
  },
  {
    "molecule": "N#Cc1c(Cl)c(Cl)c(Cl)c(C#N)c1Cl",
    "normalized growth": 0.994
  },
  {
    "molecule": "CN1C2CC3C[C@H]1C(O3)C2O (some centres not stated)",
    "normalized growth": 0.999
  }
]

====

# method-description: chemical genetic growth profiling, strain panel (AID 1159580);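 further: tested at 20 µM; growth read once vehicle control cultures reached saturation at 30 °C; 1 = growth at the plate median or of vehicle wells; lower values mean less growth of the strain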
# condition-parameters: S. cerevisiae deletion strains, growth OD, locus YIL125W, strain kgd1
About 2,000 (36%) of roughly 5,500 compounds were called active. Inconclusive results (about 18%) are left out. No stated cut-off is given here; in the data, active means normalized growth mostly below about 0.91 (no sharp cut-off); inconclusive means no clear call, values can overlap the other calls; inactive means mostly above about 0.92. Some of the results follow.
Classes used: yes = active, no = inactive

[
  {
    "compound": "O=C(O)C1C(O)CCC2CN3CCc4c([nH]c5ccccc45)C3CC21 (configuration not stated)",
    "label-class": "no"
  },
  {
    "compound": "COC(=O)[C@H]1[C@H]2C[C@H]3c4[nH]c5ccccc5c4CCN3C[C@H]2CC[C@@H]1O",
    "label-class": "no"
  },
  {
    "compound": "CCC(C(N)=O)c1ccccc1 (configuration not stated)",
    "label-class": "no"
  },
  {
    "compound": "C[CH2][Hg][S]c1ccccc1C(=O)O",
    "label-class": "yes"
  },
  {
    "compound": "Cc1c(N(C)C)c(=O)n(-c2ccccc2)n1C",
    "label-class": "no"
  },
  {
    "compound": "COc1ccc([C@@H]2CC(=O)c3c(O)cc(O)cc3O2)cc1O",
    "label-class": "no"
  },
  {
    "compound": "CNc1ccccc1C(=O)N1CCc2c([nH]c3ccccc23)C1=O",
    "label-class": "no"
  }
]

====

# method-description: chemical genetic growth profiling, strain panel (AID 1159580);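 further: tested at 20 µM; growth read once vehicle control cultures reached saturation at 30 °C; 1 = growth at the plate median or of vehicle wells; lower values mean less growth of the strain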
# condition-parameters: S. cerevisiae deletion strains, growth OD, locus YMR205C, strain PFK2
Out of some 5,500 compounds screened, about 2,000 (36%) were called active. About 18% were inconclusive and are not listed. Rule as the data show it: active = normalized growth mostly below about 0.91 (no sharp cut-off); inconclusive = no clear call, values can overlap the other calls; inactive = mostly above about 0.92. This is one part of the list.
Outcomes: active, inactive

[
  {
    "compound": "CC(=O)O[C@@](C)(CCC=C(C)C)C1CC=C(C)CC1 (stereo not given in full)",
    "label-class": "inactive"
  },
  {
    "compound": "Cc1cccc(Nc2cc(Cl)nc(SCC(=O)O)n2)c1C",
    "label-class": "inactive"
  },
  {
    "compound": "CCC1(C)CC(=O)NC1=O (stereo not given)",
    "label-class": "inactive"
  },
  {
    "compound": "CCCCCCCCCCCCCCCCOP(=O)([O-])OCC[N+](C)(C)C",
    "label-class": "active"
  },
  {
    "compound": "Cc1cc(C(C)(C)CC(C)(C)C)ccc1OCCOCC[N+](C)(C)Cc1ccccc1",
    "label-class": "active"
  },
  {
    "compound": "CC(C(=O)O)c1ccc2c(c1)[nH]c1ccc(Cl)cc12 (stereo not given)",
    "label-class": "inactive"
  },
  {
    "compound": "CN1CCc2cc3c(cc2C1O)OCO3 (stereo not given)",
    "label-class": "inactive"
  },
  {
    "compound": "CNc1ccccc1C(=O)N1CCc2c([nH]c3ccccc23)C1=O",
    "label-class": "inactive"
  },
  {
    "compound": "CCCCOc1ccc(OCCCN2CCOCC2)cc1",
    "label-class": "inactive"
  },
  {
    "compound": "COc1ccc(-c2coc3c(O)c(OC)ccc3c2=O)cc1",
    "label-class": "active"
  },
  {
    "compound": "CCc1ccc(CCOc2ccc(CC3SC(=O)NC3=O)cc2)nc1 (stereo not given)",
    "label-class": "inactive"
  },
  {
    "compound": "Cc1cc(OC(=O)N2CCCCC2)c(C(C)C)cc1[N+](C)(C)C",
    "label-class": "inactive"
  },
  {
    "compound": "COc1cccc2c1CCC1CC(=O)CCC21C (stereo not given)",
    "label-class": "inactive"
  },
  {
    "compound": "COc1cccc([C@]2(O)CCCC[C@H]2CN(C)C)c1",
    "label-class": "inactive"
  },
  {
    "compound": "C[C@@H]1O[C@@H](O[C@H]2[C@@H](Oc3cc(O)c4c(c3)O[C@H](c3ccc(O)cc3)CC4=O)O[C@H](CO)[C@@H](O)[C@@H]2O)[C@H](O)[C@H](O)[C@H]1O",
    "label-class": "inactive"
  },
  {
    "compound": "O=[N+]([O-])O[C@H]1CO[C@H]2[C@@H]1OC[C@H]2O[N+](=O)[O-]",
    "label-class": "inactive"
  },
  {
    "compound": "OC(CCN1CCCCC1)(c1ccccc1)c1ccccc1",
    "label-class": "inactive"
  },
  {
    "compound": "CN=C(NC#N)NCCSCc1nc[nH]c1C",
    "label-class": "inactive"
  },
  {
    "compound": "CC(C)(C)CC(C)(C)c1ccc(OCCOCC[N+](C)(C)Cc2ccccc2)cc1",
    "label-class": "active"
  },
  {
    "compound": "CNC1(C)C2CCC(C2)C1(C)C (stereo not given)",
    "label-class": "inactive"
  },
  {
    "compound": "O=C(O)c1cc(=O)c2ccc(Cl)cc2[nH]1",
    "label-class": "inactive"
  },
  {
    "compound": "COC1C(O)C(O)C(O)[C@@H](O)C1O (stereo not given in full)",
    "label-class": "inactive"
  },
  {
    "compound": "COc1ccc(-c2cc(=O)c3c(O)cc(OC)c(OC)c3o2)c(OC)c1",
    "label-class": "inactive"
  },
  {
    "compound": "COc1cc2c(cc1OC)C(=O)C(CC1CCN(Cc3ccccc3)CC1)C2 (stereo not given)",
    "label-class": "inactive"
  },
  {
    "compound": "CCCCCCCC/C=C/CCCCCCCCOP(=O)([O-])OCC[N+](C)(C)C",
    "label-class": "active"
  },
  {
    "compound": "CCCCOc1ccc(C(=O)CCN2CCCCC2)cc1",
    "label-class": "active"
  },
  {
    "compound": "O=C(O)c1ccccc1OP(=O)(O)O",
    "label-class": "inactive"
  },
  {
    "compound": "CCC1(c2ccccc2)C(=O)NCNC1=O",
    "label-class": "inactive"
  },
  {
    "compound": "C[C@@H](N)CO",
    "label-class": "inactive"
  },
  {
    "compound": "COc1ccc2c(c1)[C@@]1(C)CCC(=O)C[C@H]1CC2",
    "label-class": "inactive"
  },
  {
    "compound": "CC(C)(N=NC(C)(C)C(=N)N)C(=N)N",
    "label-class": "inactive"
  },
  {
    "compound": "COc1ccc([C@@H]2CC(=O)c3c(O)cc(O)cc3O2)cc1O",
    "label-class": "inactive"
  },
  {
    "compound": "COC(=O)[C@@H]1C(O)CC[C@H]2CN3CCc4c([nH]c5ccccc45)[C@@H]3C[C@@H]21 (stereo not given in full)",
    "label-class": "inactive"
  },
  {
    "compound": "CCCCCC(C)N (stereo not given)",
    "label-class": "inactive"
  },
  {
    "compound": "CCC1(c2ccc(N)cc2)CCC(=O)NC1=O (stereo not given)",
    "label-class": "inactive"
  }
]

Sourced from PubChem BioAssay AID1159580
